# measurement description: self-splicing fitness, log relative to wild type (ln ratio); higher = more splicing; Tetrahymena group I intron in knt gene, E. coli kanamycin selection, DiMSum; sequences stand for … in CUCUCU…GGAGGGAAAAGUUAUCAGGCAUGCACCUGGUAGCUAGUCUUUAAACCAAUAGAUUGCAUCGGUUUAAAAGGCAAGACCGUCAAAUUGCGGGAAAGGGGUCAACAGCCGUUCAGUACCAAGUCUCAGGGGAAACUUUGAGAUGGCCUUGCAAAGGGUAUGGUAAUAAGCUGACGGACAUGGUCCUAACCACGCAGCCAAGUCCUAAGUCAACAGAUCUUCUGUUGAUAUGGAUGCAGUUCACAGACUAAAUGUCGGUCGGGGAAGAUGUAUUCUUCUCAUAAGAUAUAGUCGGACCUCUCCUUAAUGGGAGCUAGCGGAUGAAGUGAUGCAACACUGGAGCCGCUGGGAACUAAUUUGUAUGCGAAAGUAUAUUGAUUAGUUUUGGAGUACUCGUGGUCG;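 note: selection with 25 µg/mL kanamycin versus none on LB agar overnight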
# condition: 37 °C
quantity measured: self-splicing fitness (ln)
Give the value as a plain number.

Input line: What value of self-splicing fitness (ln) has been recorded for this entry: ACGAAGCAAUAUUACGGCCU
Output line: 0.0498

Input line: What value of self-splicing fitness (ln) has been recorded for this entry: GACAAGCAAUAUUACGUGUA
Output line: -0.227

Input line: What value of self-splicing fitness (ln) has been recorded for this entry: ACUAAGCAAUAUUACGCACA
Output line: 0.0989

Input line: What value of self-splicing fitness (ln) has been recorded for this entry: GGACAGCAAUAUUACGAGGG
Output line: -2.28

Input line: What value of self-splicing fitness (ln) has been recorded for this entry: GUCCAGCAAUAUUACGCACG
Output line: -0.825

Input line: What value of self-splicing fitness (ln) has been recorded for this entry: AUAAAGCAAUAUUACGUAAU
Output line: -0.869

Input line: What value of self-splicing fitness (ln) has been recorded for this entry: AACCAGCAAUAUUACGAGGG
Output line: -2.1

Input line: What value of self-splicing fitness (ln) has been recorded for this entry: AGUGAGCAAUAUUACGACCG
Output line: -0.72

Input line: What value of self-splicing fitness (ln) has been recorded for this entry: UACGAGCAAUAUUACGUCAA
Output line: -2.31

Input line: What value of self-splicing fitness (ln) has been recorded for this entry: GUGAAGCAAUAUUACGCCUG
Output line: 0.015

Input line: What value of self-splicing fitness (ln) has been recorded for this entry: GACCAGCAAUAUUACGUUUU
Output line: -0.174

Input line: What value of self-splicing fitness (ln) has been recorded for this entry: UGACAGCAAUAUUACGAAAC
Output line: -1.96

Input line: What value of self-splicing fitness (ln) has been recorded for this entry: AUUGAGCAAUAUUACGAGUC
Output line: -2.38

Input line: What value of self-splicing fitness (ln) has been recorded for this entry: UGUGAGCAAUAUUACGUUAG
Output line: -2.84

Input line: What value of self-splicing fitness (ln) has been recorded for this entry: UUCAAGCAAUAUUACGAUAU
Output line: -1.42

Input line: What value of self-splicing fitness (ln) has been recorded for this entry: GCAUAGCAAUAUUACGCGGU
Output line: -1.77

Input line: What value of self-splicing fitness (ln) has been recorded for this entry: AACCAGCAAUAUUACGCAUC
Output line: -0.531

Input line: What value of self-splicing fitness (ln) has been recorded for this entry: AGUAAGCAAUAUUACGUGGC
Output line: -2.54

Input line: What value of self-splicing fitness (ln) has been recorded for this entry: GUAGAGCAAUAUUACGUGUA
Output line: -2.53

Input line: What value of self-splicing fitness (ln) has been recorded for this entry: UUCGAGCAAUAUUACGUACA
Output line: -1.81

Input line: What value of self-splicing fitness (ln) has been recorded for this entry: ACCGAGCAAUAUUACGUAUG
Output line: -2.28

Input line: What value of self-splicing fitness (ln) has been recorded for this entry: AACGAGCAAUAUUACGCUCU
Output line: -1.81

Input line: What value of self-splicing fitness (ln) has been recorded for this entry: GCAGAGCAAUAUUACGGUUU
Output line: -2.08

Input line: What value of self-splicing fitness (ln) has been recorded for this entry: AUGAAGCAAUAUUACGAGUA
Output line: -0.848

Input line: What value of self-splicing fitness (ln) has been recorded for this entry: CCGGAGCAAUAUUACGCGCG
Output line: -0.558

Input line: What value of self-splicing fitness (ln) has been recorded for this entry: CUCGAGCAAUAUUACGUCGG
Output line: -0.674

Input line: What value of self-splicing fitness (ln) has been recorded for this entry: GGGGAGCAAUAUUACGGCCA
Output line: 0.555

Input line: What value of self-splicing fitness (ln) has been recorded for this entry: UCGCAGCAAUAUUACGAACU
Output line: -1.69

Input line: What value of self-splicing fitness (ln) has been recorded for this entry: AUGCAGCAAUAUUACGGUUA
Output line: -0.0917

Input line: What value of self-splicing fitness (ln) has been recorded for this entry: CACCAGCAAUAUUACGCACU
Output line: -1.59

Input line: What value of self-splicing fitness (ln) has been recorded for this entry: AACAAGCAAUAUUACGAAGG
Output line: -1.95

Input line: What value of self-splicing fitness (ln) has been recorded for this entry: UCUCAGCAAUAUUACGGAGA
Output line: -3.43

Input line: What value of self-splicing fitness (ln) has been recorded for this entry: CAACAGCAAUAUUACGACAA
Output line: -2.29

Input line: What value of self-splicing fitness (ln) has been recorded for this entry: GCCUAGCAAUAUUACGUCAC
Output line: -2.04

Input line: What value of self-splicing fitness (ln) has been recorded for this entry: UCCAAGCAAUAUUACGGUAU
Output line: -2.02

Input line: What value of self-splicing fitness (ln) has been recorded for this entry: CUACAGCAAUAUUACGCCAU
Output line: -2.45

Input line: What value of self-splicing fitness (ln) has been recorded for this entry: GGUGAGCAAUAUUACGAGGC
Output line: -0.336

Input line: What value of self-splicing fitness (ln) has been recorded for this entry: ACGAAGCAAUAUUACGGUUA
Output line: -0.445

Input line: What value of self-splicing fitness (ln) has been recorded for this entry: CGAUAGCAAUAUUACGUGAU
Output line: -0.808

Input line: What value of self-splicing fitness (ln) has been recorded for this entry: CUAUAGCAAUAUUACGCCUC
Output line: -3.15

Input line: What value of self-splicing fitness (ln) has been recorded for this entry: AUCGAGCAAUAUUACGAACC
Output line: -0.838

Input line: What value of self-splicing fitness (ln) has been recorded for this entry: AAUUAGCAAUAUUACGCGCU
Output line: -0.214

Input line: What value of self-splicing fitness (ln) has been recorded for this entry: UGACAGCAAUAUUACGUUUC
Output line: -1.5

Input line: What value of self-splicing fitness (ln) has been recorded for this entry: CCUAAGCAAUAUUACGGUUU
Output line: -3.07

Input line: What value of self-splicing fitness (ln) has been recorded for this entry: UAAGAGCAAUAUUACGUGAA
Output line: -1.74

Input line: What value of self-splicing fitness (ln) has been recorded for this entry: CAGAAGCAAUAUUACGUCUA
Output line: 0.782

Input line: What value of self-splicing fitness (ln) has been recorded for this entry: CUGAAGCAAUAUUACGGCCG
Output line: 0.451

Input line: What value of self-splicing fitness (ln) has been recorded for this entry: CGACAGCAAUAUUACGGGGA
Output line: -2.35

Input line: What value of self-splicing fitness (ln) has been recorded for this entry: AUGUAGCAAUAUUACGGGUU
Output line: -2.23

Input line: What value of self-splicing fitness (ln) has been recorded for this entry: GAGUAGCAAUAUUACGAGUU
Output line: -0.98

Input line: What value of self-splicing fitness (ln) has been recorded for this entry: AGCUAGCAAUAUUACGCCGU
Output line: -1.2

Input line: What value of self-splicing fitness (ln) has been recorded for this entry: CUGUAGCAAUAUUACGUGAC
Output line: -0.0647

Input line: What value of self-splicing fitness (ln) has been recorded for this entry: AACGAGCAAUAUUACGAUCA
Output line: -1.41

Input line: What value of self-splicing fitness (ln) has been recorded for this entry: AACAAGCAAUAUUACGCCUU
Output line: -0.314

Input line: What value of self-splicing fitness (ln) has been recorded for this entry: UGGAAGCAAUAUUACGACCU
Output line: 0.699

Input line: What value of self-splicing fitness (ln) has been recorded for this entry: GCGGAGCAAUAUUACGUGCA
Output line: -0.813

Input line: What value of self-splicing fitness (ln) has been recorded for this entry: CGGAAGCAAUAUUACGCAUG
Output line: -0.32

Input line: What value of self-splicing fitness (ln) has been recorded for this entry: GCGCAGCAAUAUUACGCCAG
Output line: -2.28

Input line: What value of self-splicing fitness (ln) has been recorded for this entry: GGUUAGCAAUAUUACGGAAU
Output line: -1.01

Input line: What value of self-splicing fitness (ln) has been recorded for this entry: GGUCAGCAAUAUUACGACGC
Output line: -0.318

Input line: What value of self-splicing fitness (ln) has been recorded for this entry: GUGGAGCAAUAUUACGGGCC
Output line: -0.665

Input line: What value of self-splicing fitness (ln) has been recorded for this entry: AUAGAGCAAUAUUACGGAAC
Output line: -1.92

Input line: What value of self-splicing fitness (ln) has been recorded for this entry: UAUAAGCAAUAUUACGAGUU
Output line: -1.11

Input line: What value of self-splicing fitness (ln) has been recorded for this entry: GACGAGCAAUAUUACGGUAG
Output line: -2.18

Input line: What value of self-splicing fitness (ln) has been recorded for this entry: CAUGAGCAAUAUUACGAUGG
Output line: -0.83

Input line: What value of self-splicing fitness (ln) has been recorded for this entry: UUGCAGCAAUAUUACGGGGA
Output line: -0.636

Input line: What value of self-splicing fitness (ln) has been recorded for this entry: GCGCAGCAAUAUUACGACGG
Output line: -0.906
